B1: HESX1 (parent)
chain: HVPNPPSGISFPSVVDHPMPEERA

Variants of: B1
assay: protein stability index of a GFP-peptide fusion (GPS, HEK-293T) (PSI 1-6); higher = more stable;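 also: lentivirally expressed fusions sorted by FACS into six bins by GFP to DsRed ratio, PSI derived from sequencing read proportions per bin multiplied by bin number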
assay context: c terminus: a fixed tail appended

[
  {
    "variant identifier": "R23M",
    "protein stability index": 2.38
  },
  {
    "variant identifier": "N4K",
    "protein stability index": 3.76
  },
  {
    "variant identifier": "P18G",
    "protein stability index": 2.43
  },
  {
    "variant identifier": "G8R",
    "protein stability index": 2.94
  },
  {
    "variant identifier": "N4R",
    "protein stability index": 4.18
  },
  {
    "variant identifier": "D16W",
    "protein stability index": 1.57
  },
  {
    "variant identifier": "I9K",
    "protein stability index": 3.53
  },
  {
    "variant identifier": "M19K",
    "protein stability index": 3.31
  }
]
